- TARGET_ENTITY: 5-hydroxytryptamine receptor 2A (Homo sapiens)
- TEST_DETAILS: Dissociation equilibrium constant against the vascular 5-hydroxytryptamine 2A receptor in the rabbit […] aorta
- Assay type: tissue-based
- MEASUREMENT_CONDITIONS: Oryctolagus cuniculus, target entry is the homologue from another species
Kindly supply the reported pKB values for the records listed here.
// no unit string in output, number only

Param readout= pKB; system= 5-hydroxytryptamine receptor 2A (Homo sapiens); entry= `CCOC(=O)c1[nH]c2ccc(CN3C(=O)NC(C)(C)C3=O)cc2c1CCN(C)C` ; returns value.
5.52

Report pKB for `CCOC(=O)c1[nH]c2ccc(CN3C(=O)CNC3=O)cc2c1CCN(C)C` tested on 5-hydroxytryptamine receptor 2A (Homo sapiens).
5.86
